# Tested on: HCT-116
# experimental.protocol: Cytotoxicity against human HCT116 cells after 72 hrs by WST-8 assay
# Type: functional, cell-based
# experimental.conditions: HCT-116, 72 h
Entries and their IC50 values follow.
Quick note: give the figure in µM, leave out the unit.

Use these answered entries as a reference point.
compound	target	units.text	IC50
CO[C@H]1O[C@H](C)Cc2ccc3c(c21)OC(=C(C)C)C3=O	HCT-116	µM	5.9
CC[C@@]1(O)C(=O)OCc2c1cc1n(c2=O)Cc2cc3ccccc3nc2-1	HCT-116	µM	0.016
CC(C)=C1Oc2c(ccc3c2[C@@H](O)O[C@H](C)C3)C1=O [(+)-PSEUDODEFLECTUSIN]	HCT-116	µM	5

Could you now consider this next compound?
Look up and report IC50, with HCT-116 as system, for `CC(C)=C1Oc2c(ccc3c2C(=O)O[C@H](C)C3)C1=O`
9.8
